Entries and their Phage binding ELISA signal, Anti-PSMA Fab with PSMA antigen
targetSystem: T1, PSMA Fab (biotinylated (site not stated))
T1 construct: Biotinylated PSMA Fab captured on neutravidin coated plates in the phage ELISA; also called Anti-PSMA Fab; 006 PSMA Fab
experimentSummary: clonal phage ELISA on captured PSMA Fab, competitor PSMA antigen pre-incubated
readoutName: Phage binding ELISA signal, Anti-PSMA Fab with PSMA antigen

binder="EGLRCVPAWMCAGF [Phage-3603]" readoutnumber=0.0633
binder="LERLCRPAWMCDGF [Phage-3596]" readoutnumber=0.136
binder="MPGACVPLWMCYGF [Phage-3590]" readoutnumber=0.0685
binder="QDLKCVPSWMCSGF [Phage-3599]" readoutnumber=0.0713
binder="WEVRCEPAWMCIGL [Phage-3600]" readoutnumber=0.0694
binder="TEIRCQPQWMCHGF [Phage-3594]" readoutnumber=0.0698
binder="EIPWCVPSWMCNYF [Phage-3597]" readoutnumber=0.0904
binder="VETLCRPAWMCWGF [Phage-3598]" readoutnumber=0.0788
binder="VMHRCEPSWMCWGF [Phage-3601]" readoutnumber=0.118
binder="QGVACIPTWMCTGF [Phage-3595]" readoutnumber=0.0711
binder="VEKMCKPAWMCNVF [Phage-3592]" readoutnumber=0.0777
binder="PDPLCVPNWMCIGL [Phage-3593]" readoutnumber=0.0686
binder="EELMCRPVWMCLGF [Phage-3591]" readoutnumber=0.0789
binder="HEPVCKPSWMCTGL [Phage-3602]" readoutnumber=0.0595
